Would you mind telling me the reported inhibition of each entry?
TARGET ENTITY: Mitogen-activated protein kinase 1 (Homo sapiens)
PROCEDURE SUMMARY: Inhibition of ERK2 at 10 uM by HTRF assay relative to control

Q: // query inhibition value for entry `O=C(NCc1cccnc1)c1cccc(-c2ccc(Nc3ccc4ncsc4c3)nn2)c1`
Result: 40%

Q: // query inhibition value for entry `Cc1cc(C(=O)N2CCN(c3ncnc4c3CN(Cc3ccccc3)CC4)CC2)c(C)n1C`
Result: 2%

Q: // query inhibition value for entry `Cc1cccc(N(C)c2cc(N3CCN(C(=O)Cc4c[nH]c5ccccc45)CC3)ncn2)c1`
Result: 5%

Q: // query inhibition value for entry `Cc1cccc(N(C)c2cc(Nc3cccc(C(=O)NCCCn4ccnc4)c3)ncn2)c1`
Result: 4%

Q: // query inhibition value for entry `Cc1cccc(N(C)c2cc(Nc3cccc(C(=O)NCc4ccncc4)c3)ncn2)c1`
Result: 6%

###

TARGET ENTITY: UniProtKB P09619
Sequence (P09619 whole entry): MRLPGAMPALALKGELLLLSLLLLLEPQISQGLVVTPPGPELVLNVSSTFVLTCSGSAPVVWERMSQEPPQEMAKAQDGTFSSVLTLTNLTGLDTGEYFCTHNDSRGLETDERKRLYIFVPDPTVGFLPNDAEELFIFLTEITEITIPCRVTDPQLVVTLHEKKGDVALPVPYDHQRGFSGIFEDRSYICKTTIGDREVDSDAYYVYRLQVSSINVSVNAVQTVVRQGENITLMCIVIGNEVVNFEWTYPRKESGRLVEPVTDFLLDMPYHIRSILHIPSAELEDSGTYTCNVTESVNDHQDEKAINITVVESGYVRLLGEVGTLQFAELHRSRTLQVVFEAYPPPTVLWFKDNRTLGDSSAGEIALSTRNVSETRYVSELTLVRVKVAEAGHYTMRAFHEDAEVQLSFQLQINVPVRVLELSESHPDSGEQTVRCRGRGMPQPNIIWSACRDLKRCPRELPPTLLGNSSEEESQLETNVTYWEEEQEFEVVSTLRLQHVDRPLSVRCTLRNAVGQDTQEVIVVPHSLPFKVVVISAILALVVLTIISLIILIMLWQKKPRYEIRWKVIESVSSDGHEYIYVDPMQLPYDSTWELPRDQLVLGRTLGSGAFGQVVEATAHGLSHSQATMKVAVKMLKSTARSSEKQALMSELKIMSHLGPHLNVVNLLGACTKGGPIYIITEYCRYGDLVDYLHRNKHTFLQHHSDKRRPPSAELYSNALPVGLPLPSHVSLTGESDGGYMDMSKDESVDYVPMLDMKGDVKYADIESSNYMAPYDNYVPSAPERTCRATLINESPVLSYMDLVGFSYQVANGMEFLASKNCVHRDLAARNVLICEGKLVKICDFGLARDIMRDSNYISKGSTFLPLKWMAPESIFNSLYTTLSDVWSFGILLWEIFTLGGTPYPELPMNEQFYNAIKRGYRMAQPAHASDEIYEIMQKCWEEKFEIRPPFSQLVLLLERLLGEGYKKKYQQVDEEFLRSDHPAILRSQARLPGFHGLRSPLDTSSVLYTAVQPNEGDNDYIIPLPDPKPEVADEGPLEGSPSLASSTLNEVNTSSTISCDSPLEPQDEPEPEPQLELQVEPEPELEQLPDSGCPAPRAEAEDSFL
PROCEDURE SUMMARY: Inhibition of PDGFRbeta at 10 uM by HTRF assay relative to control
PROPERTY LABEL: inhibition (%)
# number only, unit % dropped from output

Q: // query inhibition value for entry `O=C(NCc1cccnc1)c1cccc(-c2ccc(Nc3ccc4ncsc4c3)nn2)c1`
Result: 85

Q: // query inhibition value for entry `CC(=O)CCCCC(=O)N1CCN(c2nccc(Oc3cccc(C)c3)n2)CC1`
Result: 4

Q: // query inhibition value for entry `Cc1cccc(N(C)c2cc(Nc3cccc(C(=O)N(C)CCc4ccccn4)c3)ncn2)c1`
Result: 23

Q: // query inhibition value for entry `Cc1cccc(N(C)c2cc(N3CCN(C(=O)Cc4c[nH]c5ccccc45)CC3)ncn2)c1`
Result: 1

Q: // query inhibition value for entry `O=C(NC[C@@H]1CCCO1)c1cccc(Nc2nccc(Nc3ccc4ncsc4c3)n2)c1`
Result: 98

###

Would you mind telling me the reported inhibition of each entry?
TARGET ENTITY: 3-phosphoinositide-dependent protein kinase 1 (Homo sapiens)
PROCEDURE SUMMARY: Inhibition of PDK1 at 10 uM by HTRF assay relative to control

Q: // query inhibition value for entry Cc1cccc(Nc2cc(Nc3cccc(C(=O)N(CC(C)O)CC(C)O)c3)ncn2)c1 (stereo not drawn)
Result: 2%

Q: // query inhibition value for entry `Cc1cc(C(=O)N2CCN(c3ncnc4c3CN(Cc3ccccc3)CC4)CC2)c(C)n1C`
Result: 0%

Q: // query inhibition value for entry `O=C(NCc1cccnc1)c1cccc(-c2ccc(Nc3ccc4ncsc4c3)nn2)c1`
Result: 4%

Q: // query inhibition value for entry `CN(C)CC(C)(C)CNC(=O)[C@@H]1CCCN1c1nccc(Nc2ccccc2)n1`
Result: 10%

Q: // query inhibition value for entry `CN(C)c1ccc(C(=O)N2CCN(c3ncnc4c3CN(Cc3ccccc3)CC4)CC2)c2ccccc12`
Result: 0%

Q: // query inhibition value for entry `Nc1nc(N2CCOCC2)cc(N2CCC(C(=O)NCCc3ccc(O)cc3)CC2)n1`
Result: 0%

Q: // query inhibition value for entry `Nc1nc(Nc2ccc3ncsc3c2)cc(N2CCC[C@H]2C(=O)NCCc2cccc(I)c2)n1`
Result: 7%

Q: // query inhibition value for entry `COc1cccc(Nc2cc(Nc3cccc(C(=O)N(C)CCc4ccccn4)c3)nc(N)n2)c1`
Result: 4%

###

Would you mind telling me the reported inhibition of each entry?
TARGET ENTITY: UniProt:P04629
Sequence (P04629 33-796 limits assumed): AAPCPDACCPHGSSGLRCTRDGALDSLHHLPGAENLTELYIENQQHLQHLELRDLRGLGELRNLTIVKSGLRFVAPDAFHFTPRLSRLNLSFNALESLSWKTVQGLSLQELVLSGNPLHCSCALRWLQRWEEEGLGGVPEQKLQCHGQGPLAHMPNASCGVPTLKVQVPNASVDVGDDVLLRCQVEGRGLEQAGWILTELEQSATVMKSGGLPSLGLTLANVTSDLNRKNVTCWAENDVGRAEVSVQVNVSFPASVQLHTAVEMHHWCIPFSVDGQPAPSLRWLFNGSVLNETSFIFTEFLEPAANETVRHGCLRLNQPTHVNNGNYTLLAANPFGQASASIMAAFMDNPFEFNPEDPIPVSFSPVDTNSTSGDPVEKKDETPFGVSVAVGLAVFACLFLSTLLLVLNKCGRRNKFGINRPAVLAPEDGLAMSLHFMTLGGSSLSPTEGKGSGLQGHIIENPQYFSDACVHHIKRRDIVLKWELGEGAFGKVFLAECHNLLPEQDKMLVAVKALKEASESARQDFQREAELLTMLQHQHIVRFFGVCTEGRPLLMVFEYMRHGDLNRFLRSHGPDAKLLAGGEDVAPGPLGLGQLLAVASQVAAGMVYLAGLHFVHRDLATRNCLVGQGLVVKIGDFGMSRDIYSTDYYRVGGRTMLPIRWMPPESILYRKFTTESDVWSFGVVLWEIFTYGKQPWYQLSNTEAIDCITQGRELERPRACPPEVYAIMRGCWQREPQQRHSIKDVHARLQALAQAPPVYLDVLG
PROCEDURE SUMMARY: Inhibition of TrkA at 10 uM by HTRF assay relative to control
# number only, unit % dropped from output

Q: // query inhibition value for entry `O=C(C1CCN(c2nccc(Nc3ccccc3)n2)CC1)N1CC[C@@H](O)C1`
Result: 12

Q: // query inhibition value for entry `Cc1cccc(Nc2nccc(Nc3cccc(C(=O)N(C)CCc4ccccn4)c3)n2)c1`
Result: 60

Q: // query inhibition value for entry `Cc1cccc(N(C)c2cc(Nc3cccc(C(=O)NCc4ccc(N(C)C)cc4)c3)ncn2)c1`
Result: 8

Q: // query inhibition value for entry Cc1cccc(Nc2cc(Nc3cccc(C(=O)N(CC(C)O)CC(C)O)c3)ncn2)c1 (stereo not given)
Result: 11

Q: // query inhibition value for entry `Cc1cccc(Nc2ncnc3c2CN(C(=O)c2ccc(N(C)C)c4ccccc24)CC3)c1`
Result: 8

Q: // query inhibition value for entry `CN(C)CC(C)(C)CNC(=O)[C@@H]1CCCN1c1nccc(Nc2ccccc2)n1`
Result: 6

Q: // query inhibition value for entry `CN(CCCn1ccnc1)C(=O)[C@@H]1CCCN1c1nccc(Nc2ccccc2)n1`
Result: 11

Q: // query inhibition value for entry `COc1ccc(NC(=O)Cc2ccc(Nc3cc(N(C)c4cccc(C)c4)ncn3)cc2)cn1`
Result: 10

Q: // query inhibition value for entry `Cc1cccc(N(C)c2cc(Nc3ccc(CC(=O)Nc4ccc5ncsc5c4)cc3)ncn2)c1`
Result: 23

Q: // query inhibition value for entry `Cc1cccc(N(C)c2cc(Nc3cccc(C(=O)NCc4ccncc4)c3)ncn2)c1`
Result: 13

###

TARGET ENTITY: Serine/threonine-protein kinase Chk1 (Homo sapiens)
PROCEDURE SUMMARY: Inhibition of CHK1 at 10 uM by HTRF assay relative to control
Classification field: Satisfied = inhibition at or over 5%; Not satisfied = inhibition under 5%.

Q: Reported inhibition at or above 5%? `O=C(NCc1cccnc1)c1cccc(-c2ccc(Nc3ccc4ncsc4c3)nn2)c1`
Result: Satisfied

Q: Reported inhibition at or above 5%? `O=C(NC[C@@H]1CCCO1)c1cccc(Nc2nccc(Nc3ccc4ncsc4c3)n2)c1`
Result: Not satisfied

Q: Reported inhibition at or above 5%? `Cc1cccc(N(C)c2cc(Nc3cccc(C(=O)NCc4ccncc4)c3)ncn2)c1`
Result: Not satisfied

Q: Reported inhibition at or above 5%? Cc1ccc(CN2CCN(c3nccc(C(C#N)c4ccccn4)n3)CC2)cc1 (configuration not stated)
Result: Satisfied

Q: Reported inhibition at or above 5%? `Cc1cccc(Nc2nccc3c2CN(C(=O)c2cc(C)n(C)c2C)CC3)c1`
Result: Not satisfied

Q: Reported inhibition at or above 5%? `COc1cccc(Nc2cc(Nc3cccc(C(=O)N(C)CCc4ccccn4)c3)nc(N)n2)c1`
Result: Satisfied

###

TARGET ENTITY: Tyrosine-protein kinase ABL1 (Homo sapiens) (UniProt P00519)
Sequence (P00519 whole entry): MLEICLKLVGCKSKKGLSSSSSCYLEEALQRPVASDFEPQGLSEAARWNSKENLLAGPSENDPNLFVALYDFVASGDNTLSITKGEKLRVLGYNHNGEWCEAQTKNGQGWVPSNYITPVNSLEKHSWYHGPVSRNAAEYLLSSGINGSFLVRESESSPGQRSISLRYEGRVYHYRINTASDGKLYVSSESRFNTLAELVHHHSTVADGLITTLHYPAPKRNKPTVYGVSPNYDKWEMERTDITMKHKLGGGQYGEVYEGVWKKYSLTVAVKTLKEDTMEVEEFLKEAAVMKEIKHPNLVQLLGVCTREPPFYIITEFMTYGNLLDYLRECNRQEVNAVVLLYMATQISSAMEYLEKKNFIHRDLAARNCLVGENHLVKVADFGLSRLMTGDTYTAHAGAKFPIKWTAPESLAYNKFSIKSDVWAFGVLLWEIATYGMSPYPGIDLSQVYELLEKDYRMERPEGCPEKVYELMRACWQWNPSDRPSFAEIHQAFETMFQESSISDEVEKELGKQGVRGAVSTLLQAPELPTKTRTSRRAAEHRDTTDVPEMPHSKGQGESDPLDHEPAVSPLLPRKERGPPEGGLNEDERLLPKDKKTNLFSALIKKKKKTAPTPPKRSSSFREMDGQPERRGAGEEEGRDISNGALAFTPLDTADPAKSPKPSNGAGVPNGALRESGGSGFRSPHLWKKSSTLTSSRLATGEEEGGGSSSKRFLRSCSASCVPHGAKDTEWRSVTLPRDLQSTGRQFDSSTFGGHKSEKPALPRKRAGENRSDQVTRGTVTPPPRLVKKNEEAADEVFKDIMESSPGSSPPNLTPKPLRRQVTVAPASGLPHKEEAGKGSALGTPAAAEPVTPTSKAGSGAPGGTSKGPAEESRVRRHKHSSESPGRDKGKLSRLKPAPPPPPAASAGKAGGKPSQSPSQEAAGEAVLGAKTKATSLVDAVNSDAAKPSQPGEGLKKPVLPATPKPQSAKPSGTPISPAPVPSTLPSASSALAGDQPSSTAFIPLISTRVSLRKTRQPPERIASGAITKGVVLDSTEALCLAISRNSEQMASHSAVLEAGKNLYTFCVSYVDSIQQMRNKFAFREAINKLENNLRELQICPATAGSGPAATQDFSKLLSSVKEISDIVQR
PROCEDURE SUMMARY: Inhibition of Abl at 10 uM by HTRF assay relative to control
Would you mind telling me the reported inhibition of each entry?
# number only, unit % dropped from output

Q: // query inhibition value for entry `CC(=O)CCCCC(=O)N1CCN(c2nccc(Oc3cccc(C)c3)n2)CC1`
Result: 1

Q: // query inhibition value for entry `CN(C)CC(C)(C)CNC(=O)c1cccc(Nc2nccc(Nc3ccc4ncsc4c3)n2)c1`
Result: 96

Q: // query inhibition value for entry `Cc1cccc(Nc2ncnc3c2CN(C(=O)c2ccc(N(C)C)c4ccccc24)CC3)c1`
Result: 7

Q: // query inhibition value for entry `Cc1cccc(N(C)c2cc(Nc3cccc(C(=O)NCc4ccncc4)c3)ncn2)c1`
Result: 53

Q: // query inhibition value for entry `Nc1nc(N2CCOCC2)cc(N2CCC(C(=O)NCCc3ccc(O)cc3)CC2)n1`
Result: 6

Q: // query inhibition value for entry `O=C(c1nc(SCc2ccc(Cl)cc2)n2ccccc12)N1CCN(c2ncnc3c2CN(Cc2ccccc2)CC3)CC1`
Result: 13

Q: // query inhibition value for entry `Cc1cccc(N(C)c2cc(Nc3ccc(CC(=O)Nc4ccc5ncsc5c4)cc3)ncn2)c1`
Result: 18

Q: // query inhibition value for entry `COc1cccc(Nc2cc(N3CCC[C@H]3C(=O)NCCc3ccc(O)cc3)nc(N)n2)c1`
Result: 6

Q: // query inhibition value for entry `O=C(CN1CCN(c2ncnc3c2CN(Cc2ccccc2)CC3)CC1)Nc1cc(F)ccc1F`
Result: 3

Q: // query inhibition value for entry `COc1ccc(NC(=O)Cc2ccc(Nc3cc(N(C)c4cccc(C)c4)ncn3)cc2)cn1`
Result: 13

Q: // query inhibition value for entry `Cc1cccc(Oc2ccnc(N3CCN(C(=O)c4c(C)noc4C)CC3)n2)c1`
Result: 0

Q: // query inhibition value for entry `Nc1nc(Nc2ccccc2)cc(N2CCC(C(=O)NCCc3ccccn3)CC2)n1`
Result: 0

Q: // query inhibition value for entry `O=C(C1CCN(c2nccc(Nc3ccccc3)n2)CC1)N1CC[C@@H](O)C1`
Result: 8

Q: // query inhibition value for entry `Cc1cccc(N(C)c2cc(N3CCN(CC(=O)Nc4nc(-c5ccccc5)cs4)CC3)ncn2)c1`
Result: 6

Q: // query inhibition value for entry `COc1cccc(Nc2cc(Nc3cccc(C(=O)NCCCn4ccnc4)c3)nc(N)n2)c1`
Result: 25

Q: // query inhibition value for entry `COc1ccc(-c2noc(CN3CCN(c4cc(Nc5cccc(O)c5)ncn4)CC3)n2)cc1`
Result: 0

Q: // query inhibition value for entry `Cc1cccc(Nc2nccc(Nc3cccc(C(=O)NCc4ccc(N(C)C)cc4)c3)n2)c1`
Result: 11

Q: // query inhibition value for entry COC[C@@H]1CCCN1C(=O)C1CCCN1c1cc(Nc2cccc(Br)c2)ncn1 (stereo not given in full)
Result: 7

Q: // query inhibition value for entry `CN(CCc1ccccn1)C(=O)c1cccc(Nc2nccc(Nc3ccc4ncsc4c3)n2)c1`
Result: 69

Q: // query inhibition value for entry `CN(C)CC(C)(C)CNC(=O)[C@@H]1CCCN1c1nccc(Nc2ccccc2)n1`
Result: 0
